- System: Plasmodium falciparum
- Assay comment: Screen against P. falciparum Asexual Blood Stage (ABS), at 5uM
- Format: functional, Dd2
- Condition parameters: tested at 5 uM
Out of some 65,000 compounds screened, about 2,100 (3.2%) showed an effect of 50% or more. The median lay at about -52%. This excerpt belongs to a sample that is enriched for strong results.
Task for the reader: assign each of the following compounds its reported INHIBITION.
// units = %; emit number, no label

Enquiry: Can you share its INHIBITION? I mean this compound: Cc1noc(C)c1CN(Cc1cccnc1)C1CN2CCC1CC2 (configuration not stated)
Return: -110

Enquiry: Can you share its INHIBITION? I mean this compound: Cc1cc(NCCc2c[nH]cn2)nc(-c2cccnc2)n1
Return: -108.15

Enquiry: Can you share its INHIBITION? I mean this compound: Cc1ccsc1CN(Cc1cccnc1)C1CC(C)(C)NC(C)(C)C1
Return: 81.4

Enquiry: Can you share its INHIBITION? I mean this compound: CCOCC(=O)NC(C)Cc1ccccc1Br (configuration not stated)
Return: -68.7

Enquiry: Can you share its INHIBITION? I mean this compound: CCCN(Cc1cccnc1)C1CC(C)(C)NC(C)(C)C1
Return: 77.6

Enquiry: Can you share its INHIBITION? I mean this compound: Cc1cc(CNC2(c3ccccc3)CCCCC2)on1
Return: 9.53

Enquiry: Can you share its INHIBITION? I mean this compound: Cc1ccsc1CN1C[C@@H]2CN(Cc3cccnc3)CCO[C@@H]2C1
Return: -28.4

Enquiry: Can you share its INHIBITION? I mean this compound: CNCCc1nc2cc(Cl)ccc2[nH]1
Return: -71

Enquiry: Can you share its INHIBITION? I mean this compound: CCCOc1ccccc1CN[C@@H]1CCC[C@H]1Cc1cc(C)no1
Return: 84.9

Enquiry: Can you share its INHIBITION? I mean this compound: Cc1cc(C[C@@H]2CCC[C@H]2NCc2cc(C)c(O)c(C)c2)on1
Return: 79.9

Enquiry: Can you share its INHIBITION? I mean this compound: CCc1cc(CN(Cc2cccnc2)C2CN3CCC2CC3)on1 (configuration not stated)
Return: 3.06

Enquiry: Can you share its INHIBITION? I mean this compound: CC1(C)CC(N(Cc2cccnc2)Cc2cccc(F)c2)CC(C)(C)N1
Return: 76.6

---

Task for the reader: assign each of the following compounds its reported INHIBITION.
- System: Plasmodium falciparum
- Assay comment: Screen against P. falciparum Asexual Blood Stage (ABS), at 5uM
- Assay type: functional, Dd2
- Condition parameters: tested at 5 uM
In all, about 65,000 compounds went through this assay and about 2,100 (3.2%) showed an effect of 50% or more. The median lay at about -52%. The sample holds strong results, similar compounds and a random draw of the others, so the mix is not that of the screen.

Enquiry: Can you share its INHIBITION? I mean this compound: Cc1cc(NC2CC3(CCN(Cc4csc(C)n4)C3)C2)ncn1 (stereo unspecified)
Return: -142%

Enquiry: Can you share its INHIBITION? I mean this compound: CCn1cc(NC(=O)N2CCN(C(=O)Oc3ccccc3)CC2)cn1
Return: -56.8%

Enquiry: Can you share its INHIBITION? I mean this compound: COC(=O)c1ccc(C2SCC(=O)Nc3c2cnn3C(C)(C)C)cc1 (stereo unspecified)
Return: -53.3%

Enquiry: Can you share its INHIBITION? I mean this compound: OCCN1CCN(Cc2cc3c(cc2Br)OCCO3)CC1
Return: 1.48%

Enquiry: Can you share its INHIBITION? I mean this compound: CCc1ccc(OCC(=O)N2CCN(CC)CC2)cc1
Return: -123%

Enquiry: Can you share its INHIBITION? I mean this compound: OCCN1CCC(CNCc2ccc(Br)cc2)CC1
Return: 86.7%

---

Task for the reader: assign each of the following compounds its reported INHIBITION.
- Test system: Plasmodium falciparum
- Assay comment: Screen against P. falciparum Asexual Blood Stage (ABS), at 5uM
- Type: functional, Dd2
- Condition parameters: tested at 5 uM
In all, about 65,000 compounds went through this assay and about 2,100 (3.2%) showed an effect of 50% or more. The median lay at about -52%. The list comes from a sample in which strong results are over-represented; it also holds close analogues and randomly drawn compounds.
// units = %; emit number, no label

Enquiry: Can you share its INHIBITION? I mean this compound: CN1CCN(c2ncc(CNCCCc3cccc(F)c3)cn2)CC1
Return: 71.5

Enquiry: Can you share its INHIBITION? I mean this compound: COCCNC(=O)[C@H]1C[C@@H]2CCN(Cc3ccncc3)C[C@H]2O1
Return: -49.6

Enquiry: Can you share its INHIBITION? I mean this compound: CC[C@H](N)Cn1nc(-c2cccs2)oc1=O
Return: -186

Enquiry: Can you share its INHIBITION? I mean this compound: Cc1cc(CN2C[C@@H]3CC[C@H]2CN(Cc2[nH]cnc2C)C3)on1
Return: -63.7

Enquiry: Can you share its INHIBITION? I mean this compound: CC(=O)N1CCOCC2(CN(Cc3ccccn3)CCO2)C1 (centres undefined)
Return: -107

Enquiry: Can you share its INHIBITION? I mean this compound: Cc1cc(C(=O)N[C@H]2COC[C@@H]2N2CCOCC2)c2ccc(F)cc2n1
Return: -31.3

Enquiry: Can you share its INHIBITION? I mean this compound: COCCn1cc(NC(=O)NC(C)Cc2c(F)cccc2F)cn1 (centres undefined)
Return: -151

Enquiry: Can you share its INHIBITION? I mean this compound: Cc1c(-c2ccccc2)nc2c(c(C)c(C)n2CCN(C)C)c1N
Return: 80.1

Enquiry: Can you share its INHIBITION? I mean this compound: CNC(=O)c1ccc2c(c1)C1(CCN(CCOC)CC1)C(=O)N2
Return: -12.8

Enquiry: Can you share its INHIBITION? I mean this compound: Cc1[nH]c2c(C)cccc2c1CC(=O)N(C)CCN(C)C
Return: 46.3

Enquiry: Can you share its INHIBITION? I mean this compound: COCCCN1CCCN(C(C)C(=O)Nc2cccc(I)c2)CC1 (centres undefined)
Return: 90

Enquiry: Can you share its INHIBITION? I mean this compound: Cc1ccc(N2CC[C@@H]3CN(Cc4cccc(C)n4)C[C@@H]3C2)nn1
Return: -27.5

Enquiry: Can you share its INHIBITION? I mean this compound: CC(C)(C)CN1CCCC2(CCN(C(=O)c3ccc(O)nc3)C2)C1 (centres undefined)
Return: -154

Enquiry: Can you share its INHIBITION? I mean this compound: Fc1cccnc1N1CCOCC2(CCCNC2)C1 (centres undefined)
Return: 34.8

Enquiry: Can you share its INHIBITION? I mean this compound: Cc1c(C(C)NCC2CCCC2)cnn1-c1ccc(F)cc1F (centres undefined)
Return: 71.9

Enquiry: Can you share its INHIBITION? I mean this compound: CO[C@H]1CNC[C@@H]1NC(=O)c1cc(C)nc2c(C)cc(C)cc12
Return: 75.1

Enquiry: Can you share its INHIBITION? I mean this compound: N#Cc1ccc(N2CCC(OC3CCOCC3)CC2)cc1Cl
Return: -184

Enquiry: Can you share its INHIBITION? I mean this compound: CCN(CC)C(=O)C1CCC2(CCNCC2)O1 (centres undefined)
Return: -55.8

Enquiry: Can you share its INHIBITION? I mean this compound: CC(Cc1cccc(F)c1)NCc1cnc(N2CCN(C)CC2)nc1 (centres undefined)
Return: 67.6

Enquiry: Can you share its INHIBITION? I mean this compound: COc1ccc(C2SCC(=O)Nc3ccsc32)cc1OC (centres undefined)
Return: -6.6

Enquiry: Can you share its INHIBITION? I mean this compound: Cc1ccc2c(CC(=O)N(C)CCN(C)C)c(C)[nH]c2c1C
Return: -86.5

Enquiry: Can you share its INHIBITION? I mean this compound: NC(=O)c1ccc(N2CCCCC2)c(NC(=O)c2ccc(Br)cc2)c1
Return: 71.3

Enquiry: Can you share its INHIBITION? I mean this compound: CN1CCC(n2cc3nc(N)[nH]cc-3c2=O)CC1
Return: -44.7

Enquiry: Can you share its INHIBITION? I mean this compound: Nc1cc(-c2cccc3c2CCNC3)ncn1
Return: -47.8

---

- Test system: Plasmodium falciparum
- Assay comment: Screen against P. falciparum Asexual Blood Stage (ABS), at 5uM
- Type: functional, Dd2
- Condition parameters: tested at 5 uM
Among all 65,000 compounds or so, about 2,100 (3.2%) showed an effect of 50% or more. The median lay at about -52%. The full list was thinned out, with strong results kept by preference.
Experimental endpoint: INHIBITION (%)
// units = %; emit number, no label

Enquiry: Can you share its INHIBITION? I mean this compound: Cc1cnn(CCCNCc2csc(COc3ccccc3)n2)c1
Return: 70.9

Enquiry: Can you share its INHIBITION? I mean this compound: CN1CCN(C(=O)Cc2csc(-c3ccsc3)n2)C(c2ccccc2)C1 (stereo not given)
Return: -7.38

Enquiry: Can you share its INHIBITION? I mean this compound: O=C(c1cccc(F)c1)N1C[C@H]2CN(Cc3ccccn3)C[C@H]2C1
Return: 0.82

Enquiry: Can you share its INHIBITION? I mean this compound: Cc1noc(C)c1CN1C[C@@H]2CC(F)(F)C[C@@H]2C1
Return: -59.4

Enquiry: Can you share its INHIBITION? I mean this compound: Cn1cnc(S(=O)(=O)N2C[C@H]3CN(Cc4ccccn4)C[C@H]3C2)c1
Return: -85.5

Enquiry: Can you share its INHIBITION? I mean this compound: Cc1cccc(CN2CC[C@H]3[C@@H]2CC(=O)N3CC2CC2)n1
Return: -122

Enquiry: Can you share its INHIBITION? I mean this compound: O=C(C1CC(=O)N(c2ccccc2Br)C1)N1CCC2(CC1)OCCO2 (stereo not given)
Return: -113

Enquiry: Can you share its INHIBITION? I mean this compound: Cc1nc(CC(=O)N2CCN(CCOc3ccccc3)CC2)cs1
Return: -22.5

Enquiry: Can you share its INHIBITION? I mean this compound: Fc1cccc(CN2C[C@@H]3CN(Cc4ccccn4)C[C@@H]3C2)c1
Return: 89.4

Enquiry: Can you share its INHIBITION? I mean this compound: Cc1cnn(CCNCc2csc(-c3ncccn3)n2)c1
Return: 71.5
